- Test system: CAKI-1
- Assay method text: NCI tumour cell line growth inhibition, 48 h
Calls of active or inactive are those of the source. Cut-off read from the data, not from the text of the source: active = GI50 up to about 1.1 µM and inactive = higher.
Field 'call' accepts True (active), False (inactive)

{"Molecule": "O=C1CCC[C@]2(CCC[C@@H](O)C2)N1", "Assigned category": "False"}
{"Molecule": "O=Cc1ccc(OCc2cccc(COc3ccc(/C=N\\Nc4ccc([N+](=O)[O-])cc4[N+](=O)[O-])cc3)n2)cc1", "Assigned category": "False"}
{"Molecule": "NCCOCCOCC(=O)O", "Assigned category": "False"}
{"Molecule": "CNC(=O)c1ccccc1[S+]1c2cccc3cccc(c23)C(=O)N1C (stereo unspecified)", "Assigned category": "False"}
{"Molecule": "CN(C)CCNC(=O)c1ccc(Cl)c2cc3ccccc3nc12", "Assigned category": "True"}

Hello, I am checking results. What call was entered for COc1c2ccoc2cc2oc(=O)ccc12 ?
False

Hello, I am checking results. What call was entered for COc1ccc(CCn2ccc(=O)c(O)c2C)cc1OC ?
False

Hello, I am checking results. What call was entered for Cc1ccccc1OC(C)C(=O)NN1C(=O)CC(=O)NC1=S (stereo unspecified) ?
False

Hello, I am checking results. What call was entered for Brc1ccc2c(-c3csc(-c4c[nH]c5ccc(Br)cc45)n3)c[nH]c2c1 ?
False

Hello, I am checking results. What call was entered for CCOC(=O)Nn1c(C)nnc1CC#N ?
False

Hello, I am checking results. What call was entered for COc1ccc(NC(=O)C2=CC(=O)c3ccc(O)cc3C2=O)c(OC)c1 ?
False

###

Exercise: state measured GI50 for each of the molecules provided.
- System: HT-29
- Assay method text: NCI tumour cell line growth inhibition, 48 h
Activity calls are given as the source filed them. Rule as the data show it: active = GI50 up to about 1.1 µM and inactive = higher.

{"Molecule": "COC(=O)C(CCSc1ccccc1)C(=O)OC", "GI50": "> 100 µM (inactive)"}

Look up GI50 for the entries below, preserving their order.
1. COc1ccc2c3c([nH]c2c1)[C@H](C=C(C)C)N1C(=O)[C@@H]2CCCN2C(=O)[C@@H]1C3
2. CCOC(=O)C1Cc2ccc3c4c(ccc(c24)C1)CC(C(=O)OCC)C3
3. COC(OC)C(O)C1OC=CC1n1cnc2c(N)ncnc21 (stereo not given)
4. COc1ccc(N2C(=O)C3c4[nH]c5c(C)cccc5c4C4CCC(c5ccccc5)CC4C3C2=O)cc1 (stereo not given)
5. Cc1cccc(N2C(=O)C3c4[nH]c5ccccc5c4C4CCC(C(C)(C)C)CC4C3C2=O)c1C (stereo not given)
6. N#CC1(C#N)C(c2ccccc2)C=CC(c2ccc([N+](=O)[O-])cc2)C1(C#N)C#N (stereo not given)

> 100 µM (inactive)
> 100 µM (inactive)
> 100 µM (inactive)
3.21 µM (inactive)
> 100 µM (inactive)
3.61 µM (inactive)

###

Exercise: state measured GI50 for each of the compounds provided.
- System: DU-145
- Assay method text: NCI tumour cell line growth inhibition, 48 h
Active and inactive are the calls of the source. Cut-off read from the data, not from the text of the source: active = GI50 up to about 1.1 µM and inactive = higher.

// known answers, use as guide
{"Compound": "CC1=NCC[N+]1(CCc1ccccc1)Cc1ccccc1 (configuration not stated)", "Measurement target": "DU-145", "Readout label": "GI50", "Result value": "> 100 µM (inactive)"}
{"Compound": "CCOC(=O)C1(C(=O)OCC)OC(C)=NC1(C(=O)OC)C(=O)OC", "Measurement target": "DU-145", "Readout label": "GI50", "Result value": "> 100 µM (inactive)"}
{"Compound": "O=C1OC(=O)c2cc(S(=O)(=O)c3ccc4c(c3)C(=O)OC4=O)ccc21", "Measurement target": "DU-145", "Readout label": "GI50", "Result value": "> 100 µM (inactive)"}
{"Compound": "C=C1CC(COc2ccc3ccc(=O)oc3c2)(c2ccccc2)OC1=O (configuration not stated)", "Measurement target": "DU-145", "Readout label": "GI50", "Result value": "2.77 µM (inactive)"}
{"Compound": "CCC1=NC(N/N=C/c2ccco2)=N/C1=C\\c1ccccc1O", "Measurement target": "DU-145", "Readout label": "GI50", "Result value": "55.6 µM (inactive)"}

Look up GI50 for the entries below, preserving their order.
1. COc1ccc(-c2c3c(nc4nc(SCC(=O)c5ccc(Br)cc5)nc(N)c24)CCCC3)cc1OC
2. [N-]=[N+]=Nc1cccc(-c2nnc(Cl)cc2O)c1

> 100 µM (inactive)
> 100 µM (inactive)

###

- Tested on: SNB-75
- Assay method text: NCI tumour cell line growth inhibition, 48 h
The source made the active and inactive calls. No stated cut-off is given here; in the data, active = GI50 up to about 1.1 µM and inactive = higher.
Field 'call' accepts label 1 = active, label 0 = inactive

{"Compound": "O=C(Oc1cc(=O)c(OC(=O)c2ccccc2)co1)c1ccccc1", "Assigned category": "label 0"}

Turning now to a further record.
Hello, I am checking results. What call was entered for C=C1CC(COc2ccc3ccc(=O)oc3c2)(c2ccccc2)OC1=O (configuration not stated) ?
label 0

###

- Test system: MDA-MB-231
- Assay method text: NCI tumour cell line growth inhibition, 48 h
Active and inactive are the calls of the source. Cut-off read from the data, not from the text of the source: active = GI50 up to about 1.1 µM and inactive = higher.
Readout label: GI50

// known answers, use as guide
{"Compound": "Cc1cccc2[nH]c3c(c(O)cc4[nH]c5cccc(C)c5c(=O)c43)c(=O)c12", "GI50": "8.11 µM (inactive)"}
{"Compound": "CCn1c2ccccc2c2ccc(C3C4C(=O)N(c5cccc6ccccc56)C(=O)C4ON3C(C(N)=O)c3ccccc3)cc21 (stereo not given)", "GI50": "> 25 µM (inactive)"}
{"Compound": "CSC1=N/C(=C\\c2ccccc2)C(=O)N1CN1CCOCC1", "GI50": "> 100 µM (inactive)"}
{"Compound": "COc1cc(C=C2C(=O)NC(=S)NC2=O)cc(OC)c1OC", "GI50": "> 100 µM (inactive)"}
{"Compound": "CCOC(=O)N1CCC2(CC1)CC(=O)N(Nc1ccccc1)C2=O", "GI50": "> 100 µM (inactive)"}
{"Compound": "CS(=O)(=O)Nc1ccc2c(c1)N(S(C)(=O)=O)CC2CCl (stereo not given)", "GI50": "> 100 µM (inactive)"}
{"Compound": "O=[N+]([O-])c1ccc(N2N=C(c3ccc4ccccc4c3O)CC2c2ccc(Cl)cc2Cl)c([N+](=O)[O-])c1 (stereo not given)", "GI50": "30.9 µM (inactive)"}
{"Compound": "C[C@@H](CCO)OC1OC(COC(=O)C(C)(C)C)C(OC(=O)C(C)(C)C)C(OC(=O)C(C)(C)C)C1OC(=O)C(C)(C)C (stereo not given in full)", "GI50": "3.4 µM (inactive)"}
{"Compound": "CC(=O)c1ccc(Oc2c3ccccc3nc3ccccc23)cc1", "GI50": "11.6 µM (inactive)"}

Here is another compound to look at.
Assign GI50 to the following record: O=c1nc(N2CCNCC2)oc2cc(Cl)oc(=O)c12
12.1 µM (inactive)

###

Exercise: state measured GI50 for each of the compounds provided.
- Test system: SK-MEL-5
- Assay method text: NCI tumour cell line growth inhibition, 48 h
Active and inactive are the calls of the source. No stated cut-off is given here; in the data, active = GI50 up to about 1.1 µM and inactive = higher. Where a SMILES comes first, the peptide text is derived from it. [ ]: non-standard residue; d: D form. The star is where a group is joined. Iva = CC[C](C)(N)C(=O)O; Boc = CC(C)(C)OC(=O)*; X54 = C1CCC(=NO*)C1

// known answers, use as guide
{"Compound": "O=c1nc2n(CCO)c(-c3ccccc3)c(-c3ccccc3)nc-2c(=O)[nH]1", "Measurement target": "SK-MEL-5", "GI50": "> 100 µM (inactive)"}
{"Compound": "COc1ccc(/C=N/n2cnc3c(c2=O)SC(=C(C#N)C#N)N3c2ccccc2)cc1", "Measurement target": "SK-MEL-5", "GI50": "> 100 µM (inactive)"}
{"Compound": "C=C1CC(COc2ccc3ccc(=O)oc3c2)(c2ccccc2)OC1=O (stereo not drawn)", "Measurement target": "SK-MEL-5", "GI50": "1.47 µM (inactive)"}
{"Compound": "CCOC(=O)NC(=O)c1cn(CC(=O)NCC(=O)NCC(=O)NCCCN2CCN(CCCNC(=O)CNC(=O)CNC(=O)Cn3cc(C(=O)NC(=O)OCC)c(=O)[nH]c3=O)CC2)c(=O)[nH]c1=O", "Measurement target": "SK-MEL-5", "GI50": "> 100 µM (inactive)"}
{"Compound": "CCC(C)(NC(=O)C(C)NC(=O)OC(C)(C)C)C(=O)NC(C)C(=O)NC(C)(CC)C(=O)ON=C1CCCC1 (stereo not drawn) (Boc-A[Iva]A[Iva]-X54; configuration not given here)", "Measurement target": "SK-MEL-5", "GI50": "> 100 µM (inactive)"}
{"Compound": "CCOC(=O)N/N=C(\\CC)OCC", "Measurement target": "SK-MEL-5", "GI50": "> 100 µM (inactive)"}

Look up GI50 for the entries below, preserving their order.
1. O=C(Nc1ccc(Sc2ccc(/N=N/c3c(O)c(S(=O)(=O)O)cc4cc(S(=O)(=O)O)ccc34)cc2)cc1)c1ccc(/N=N/c2c(O)ccc3c(S(=O)(=O)O)cc(S(=O)(=O)O)cc23)cc1
2. COC(=O)C1Cc2c([nH]c3ccccc23)-c2[nH]c3ccccc3c2CC(NC(C)=O)C(=O)NCC(=O)N1 (stereo not drawn)

1: 7.5 µM (inactive); 2: > 100 µM (inactive)
